- Test system: ZEAMA Sileno
- test: Seed treatment with safener; post-emergence herbicide application
- Type: in vivo, maize
- setupConditions: HER dose 8 g a.i./ha, Cyprosulfamide 0.5 g a.i./kg seed, Final assessment
experimentalEndpoint: Reduction [%] (%)
Report the value in % with no unit label.

1) CC1(C(=O)NC2C=CC(C(=O)OCCSC(F)(F)F)C2)CC(c2cc(F)cc(F)c2)=NO1 (stereo not drawn) = 100
2) CCOC(=O)C1C=CC(NC(=O)C2(CF)CC(c3cc(F)cc(F)c3)=NO2)C1 (stereo not drawn) = 95
3) COC(=O)C1C=CC(NC(=O)C2(C)CC(c3cc(Cl)cc(C#N)c3)=NO2)C1 (mixture of isomers) = 100
4) COC(=O)C1=CC(NC(=O)C2(C)CC(c3cc(F)cc(F)c3)=NO2)CC1 (stereo not drawn) = 85

For CC1(C(=O)NC2C=CC(C(=O)O)C2)CC(c2cc(F)cc(F)c2)=NO1 (stereo not drawn) , what is its reported Reduction [%]?
94

* * *

- System: ZEAMA Sileno
- test: Seed treatment with safener; post-emergence herbicide application
- Assay type: in vivo, maize
- Parameters: scale not given here
- setupConditions: HER dose 32 g a.i./ha, Cyprosulfamide 0.5 g a.i./kg seed, Final assessment, damage without safener - damage with safener
Catalogue of molecules with associated Reduction [Difference]
Write no unit; give the number alone.

1) C=CC1(C(=O)NC2COC(C(=O)OC)C2)CC(c2cc(F)cc(F)c2)=NO1 (centres unmarked) [Example 1.69] = 70
2) C=CC1(C(=O)NC2COC(C(=O)OC)C2)CC(c2cc(F)cc(F)c2)=NO1 (centres unmarked) [Example 1.70] = 66
3) C=CC1(C(=O)NC2C=C(C(=O)OCCOC)OC2)CC(c2cc(C)cc(F)c2)=NO1 (centres unmarked) [Example 1.89] = 22
4) CC1(C(=O)NC2C=CC(C(=O)OCCSCc3ccccc3)C2)CC(c2cc(F)cc(F)c2)=NO1 (centres unmarked) [Example 1.27] = 45

# ---- query molecule ----
For C=CC1(C(=O)NC2C=CC(C(=O)O)C2)CC(c2cc(F)cc(F)c2)=NO1 (centres unmarked) [Example 1.58] , what is its reported Reduction [Difference]?
45

* * *

- Tested on: ZEAMA Abraxas
- test: Tank-mix; post-emergence, crop damage with and without safener
- Assay type: in vivo, maize
- setupConditions: HER dose 2 g a.i./ha + cyprosulfamide 50 g a.i./ha tank-mix; Final assessment
experimentalEndpoint: HER effect + SAF (%)
Report the value in % with no unit label.

1) COC(=O)C1C=CC(NC(=O)C2(C)CC(c3cc(F)cc(F)c3)=NO2)C1 (stereo not shown) = 15
2) CCCSCCOC(=O)C1C=CC(NC(=O)C2(C)CC(c3cc(F)cc(F)c3)=NO2)C1 (stereo not shown) = 25
3) CC1(C(=O)NC2C=CC(C(=O)OCCSC(F)(F)F)C2)CC(c2cc(F)cc(F)c2)=NO1 (stereo not shown) = 35

For C=CC1(C(=O)NC2C=C(C(=O)OC)OC2)CC(c2cc(C)cc(C)c2)=NO1 (stereo not shown) , what is its reported HER effect + SAF?
3

* * *

Catalogue of compounds with associated Reduction [%]
- System: ZEAMA Sileno
- test: Treatment 1 day before (safener applied one day before herbicide, post-emergence)
- Type: in vivo, maize
- setupConditions: HER 8 g a.i./ha, cyprosulfamide 100 g a.i./ha 1 day before
Report the value in % with no unit label.

Some compounds with known Reduction [%] results, for comparison:
1. CCCSCCOC(=O)C1C=CC(NC(=O)C2(C)CC(c3cc(F)cc(F)c3)=NO2)C1 (centres unmarked) [Example 1.34] = 60
2. CCOC(=O)C1C=CC(NC(=O)C2(CF)CC(c3cc(F)cc(F)c3)=NO2)C1 (centres unmarked) [Example 1.17] = 63
3. CN(C)C(=O)SCCOC(=O)C1C=CC(NC(=O)C2(C)CC(c3cc(F)cc(F)c3)=NO2)C1 (centres unmarked) [Example 1.29] = 67
4. CC1(C(=O)NC2C=CC(C(=O)O)C2)CC(c2cc(F)cc(F)c2)=NO1 (centres unmarked) [Example 1.36] = 69

# ---- query compound ----
For C=CC1(C(=O)NC2COC(C(=O)OC)C2)CC(c2cc(F)cc(F)c2)=NO1 (mixture of isomers) [Example 1.68] , what is its reported Reduction [%]?
69

* * *

- Tested on: ZEAMA Sileno
- test: Seed treatment with safener; post-emergence herbicide application
- Assay type: in vivo, maize
- Design: scale not given here
- setupConditions: HER dose 32 g a.i./ha, Cyprosulfamide 0.5 g a.i./kg seed, Final assessment, damage without safener - damage with safener
Catalogue of molecules with associated Reduction [Difference]
Write no unit; give the number alone.

1. C=CC1(C(=O)NC2COC(C(=O)OCCOC)C2)CC(c2cc(F)cc(F)c2)=NO1 (mixture of isomers) [Example 1.66] = 94
2. CC1(C(=O)NC2CC=C(C(=O)NS(C)(=O)=O)C2)CC(c2cc(F)cc(F)c2)=NO1 (mixture of isomers) [Example 1.61] = 40
3. C=CC1(C(=O)NC2COC(C(=O)OCCCl)C2)CC(c2cc(F)cc(F)c2)=NO1 (mixture of isomers) [Example 1.82] = 77
4. COC(=O)C1C=CC(NC(=O)C2(C)CC(c3cc(F)cc(F)c3)=NO2)C1 (stereo not drawn) [Example 1.19] = 60
5. C=CC1(C(=O)NC2COC(C(=O)OC)C2)CC(c2cc(F)cc(F)c2)=NO1 (mixture of isomers) [Example 1.68] = 68

For C=CCOC(=O)C1CC(NC(=O)C2(C=C)CC(c3cc(F)cc(F)c3)=NO2)CO1 (mixture of isomers) [Example 1.83] , what is its reported Reduction [Difference]?
82

For COC(=O)C1C=CC(NC(=O)C2(C)CC(c3cc(Cl)cc(C#N)c3)=NO2)C1 (mixture of isomers) [Example 1.23] , what is its reported Reduction [Difference]?
67

* * *

- Test system: ZEAMA Sileno
- test: Tank-mix; post-emergence, crop damage with and without safener
- Format: in vivo, maize
- setupConditions: HER 8 g a.i./ha, cyprosulfamide 50 g a.i./ha
Catalogue of compounds with associated Reduction [Difference]

1) COC(=O)C1=CC(NC(=O)C2(C)CC(c3cc(F)cc(F)c3)=NO2)CC1 (centres unmarked) [Example 1.63] = 62
2) CCOC(=O)C1C=CC(NC(=O)C2(CF)CC(c3cc(F)cc(F)c3)=NO2)C1 (centres unmarked) [Example 1.17] = 50
3) COCCOC(=O)C1C=CC(NC(=O)C2(C)CC(c3cc(Cl)cc(C#N)c3)=NO2)C1 (centres unmarked) [Example 1.5] = 47
4) COC(=O)C1C=CC(NC(=O)C2(C(F)(F)F)CC(c3cccc(F)c3)=NO2)C1 (centres unmarked) [Example 1.18] = 62

For COC(=O)C1C=CC(NC(=O)C2(C)CC(c3cc(Cl)cc(C#N)c3)=NO2)C1 (mixture of isomers) [Example 1.23] , what is its reported Reduction [Difference]?
30

For COC(=O)C1(C)CC(NC(=O)C2(C(C)(F)F)CC(c3cc(F)cc(F)c3)=NO2)CO1 (mixture of isomers) [Example 1.94] , what is its reported Reduction [Difference]?
81

* * *

- Test system: ZEAMA Sileno
- test: Tank-mix; post-emergence, crop damage with and without safener
- Type: in vivo, maize
- setupConditions: HER dose 8 g a.i./ha, no safener; Final assessment
Mark rule not met for HER effect values under 80%, and rule met for everything at or above.

For orientation, consider the following solved cases.
1) C=CC1(C(=O)NC2COC(C(=O)OC)C2)CC(c2cc(F)cc(F)c2)=NO1 (centres unmarked) [Example 1.70] = rule met
2) C=CCOC(=O)C1CC(NC(=O)C2(C=C)CC(c3cc(F)cc(F)c3)=NO2)CO1 (mixture of isomers) = rule not met
3) COCCOC(=O)C1C=CC(NC(=O)C2(C)CC(c3cc(Cl)cc(C#N)c3)=NO2)C1 (centres unmarked) = rule met
4) C=CCOC(=O)C1CC(NC(=O)C2(C)CC(c3cc(F)cc(F)c3)=NO2)CO1 (mixture of isomers) = rule not met
5) C=CC1(C(=O)NC2COC(C(=O)OCCOC)C2)CC(c2cc(F)cc(F)c2)=NO1 (mixture of isomers) = rule met
6) CCOC(=O)C1=CCC(NC(=O)C2(C)CC(c3cccc(F)c3)=NO2)C1 (mixture of isomers) = rule not met
7) COC(=O)C1=CC(NC(=O)C2(C)CC(c3cc(F)cc(F)c3)=NO2)CC1 (centres unmarked) = rule met
8) COC(=O)C1(C)CC(NC(=O)C2(C(C)(F)F)CC(c3cc(F)cc(F)c3)=NO2)CO1 (mixture of isomers) = rule met

# bool: HER effect of COC(=O)C1C=CC(NC(=O)C2(C(F)(F)F)CC(c3cccc(F)c3)=NO2)C1 (centres unmarked) >= 80%
rule met

# bool: HER effect of CCOC(=O)C1C=CC(NC(=O)C2(CF)CC(c3cc(F)cc(F)c3)=NO2)C1 (centres unmarked) >= 80%
rule met
